# System: Alpha-1A adrenergic receptor (Homo sapiens) (UniProt P35348)
# Sequence (whole entry): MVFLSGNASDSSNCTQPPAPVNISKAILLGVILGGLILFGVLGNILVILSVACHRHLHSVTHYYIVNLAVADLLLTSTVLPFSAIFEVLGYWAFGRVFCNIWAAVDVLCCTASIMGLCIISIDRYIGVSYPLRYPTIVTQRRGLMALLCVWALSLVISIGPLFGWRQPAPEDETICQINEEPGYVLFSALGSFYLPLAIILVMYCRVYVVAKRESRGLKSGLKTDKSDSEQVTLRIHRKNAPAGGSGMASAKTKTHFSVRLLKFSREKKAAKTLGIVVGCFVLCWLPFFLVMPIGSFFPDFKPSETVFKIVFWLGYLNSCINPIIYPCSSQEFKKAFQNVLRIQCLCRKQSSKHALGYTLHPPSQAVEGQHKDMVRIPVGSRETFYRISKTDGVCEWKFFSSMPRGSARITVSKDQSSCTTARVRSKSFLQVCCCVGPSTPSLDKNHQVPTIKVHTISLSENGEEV
# Assay protocol: Agonist activity at human cloned adrenergic alpha-1A receptor expressed in CHO cells assessed as calcium mobilization by FLIPR relative to phenylephrine
# Format: functional, cell-based
The entries below are paired with their reported Emax.
Quantity measured: Emax (%)

{"columns": ["Compound", "Endpoint unit", "Data value"],
 "data": [
  ["c1ccc2c(c1)CCC2c1ncc[nH]1 (stereo not drawn)", "%", 54],
  ["CS(=O)(=O)Nc1c(Cl)ccc2c1CCCC2c1ncc[nH]1 (stereo not drawn)", "%", 61],
  ["Cn1cc(-c2cccc3c2CCC3c2ncc[nH]2)cn1 (stereo not drawn)", "%", 12]
]}

---

# System: Alpha-1A adrenergic receptor (Homo sapiens) (UniProt P35348)
# Sequence (whole entry): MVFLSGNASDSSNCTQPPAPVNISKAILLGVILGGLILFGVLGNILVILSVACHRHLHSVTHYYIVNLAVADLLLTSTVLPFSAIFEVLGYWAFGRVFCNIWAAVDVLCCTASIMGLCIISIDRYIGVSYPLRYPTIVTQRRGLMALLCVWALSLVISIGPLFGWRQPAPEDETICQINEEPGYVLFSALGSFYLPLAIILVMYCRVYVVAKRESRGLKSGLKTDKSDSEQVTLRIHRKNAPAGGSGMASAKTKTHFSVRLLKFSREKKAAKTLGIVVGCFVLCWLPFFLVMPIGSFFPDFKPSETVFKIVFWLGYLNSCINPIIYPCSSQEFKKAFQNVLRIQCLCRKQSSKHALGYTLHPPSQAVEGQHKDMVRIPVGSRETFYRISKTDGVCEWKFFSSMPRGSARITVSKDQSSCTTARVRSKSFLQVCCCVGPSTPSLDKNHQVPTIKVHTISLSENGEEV
# Assay protocol: Agonist activity at human cloned adrenergic alpha-1A receptor expressed in CHO cells assessed as calcium mobilization by FLIPR relative to phenylephrine
# Type: functional, cell-based
Rule: Emax of 70% or more gives fulfilled; anything lower gives not fulfilled.

{"columns": ["Compound", "Label class"],
 "data": [
  ["CNC(=O)c1cccc2c1CCC2c1ncc[nH]1 (stereo unspecified)", "not fulfilled"],
  ["COc1c(C)ccc2c1CCC2c1ncc[nH]1 (stereo unspecified)", "not fulfilled"],
  ["CS(=O)(=O)Nc1cccc2c1CCCC2c1ncc[nH]1 (stereo in doubt; 17)", "fulfilled"],
  ["Cc1ccc2c(c1NS(C)(=O)=O)CCC2c1ncc[nH]1 (stereo unspecified)", "fulfilled"],
  ["CS(=O)(=O)Nc1cccc2c1CCCC2c1ncc[nH]1 (stereo in doubt; 17b)", "not fulfilled"],
  ["Cc1n[nH]cc1-c1cccc2c1CCC2c1ncc[nH]1 (stereo unspecified)", "fulfilled"],
  ["Cn1nccc1-c1cccc2c1CCC2c1ncc[nH]1 (stereo unspecified)", "not fulfilled"],
  ["CS(=O)(=O)Nc1cccc2c1CCC2c1ncc[nH]1 (stereo unspecified)", "fulfilled"],
  ["c1cncc(-c2cccc3c2CCC3c2ncc[nH]2)c1 (stereo unspecified)", "not fulfilled"],
  ["Clc1ccc2c(c1-c1ccn[nH]1)CCC2c1ncc[nH]1 (stereo unspecified)", "not fulfilled"],
  ["Cc1c(OCC2=NCCN2)ccc(Cl)c1NS(C)(=O)=O", "not fulfilled"],
  ["CCS(=O)(=O)Nc1cccc(Cc2c[nH]cn2)c1", "fulfilled"],
  ["Cn1ccc(-c2cccc3c2CCC3c2ncc[nH]2)n1 (stereo unspecified)", "not fulfilled"],
  ["c1cc(-c2ncco2)c2c(c1)C(c1ncc[nH]1)CC2 (stereo unspecified)", "not fulfilled"],
  ["CCCS(=O)(=O)Nc1cccc2c1CCC2c1ncc[nH]1 (stereo unspecified)", "not fulfilled"]
]}

Origin of values: ChEMBL document CHEMBL1145605
